Values from patent US10975060B2

Answer each item with its documented r1 water.
Assay: Relaxivity measurements at 1.4 T (MiniSpec mq60, 60 MHz, 37 °C) in water and human plasma
Assay type: physicochemical
Details: 1.41 T, water, normalized to Gd
Output spec: scalar in L/mmol/s, unitless text.

Supply r1 water value. Item: CC(C)N(CC(=O)NCC(CNC(=O)CN(C(=O)CN1CCN(CC(=O)[O-])CCN(CC(=O)[O-])CCN(CC(=O)[O-])CC1)C(C)C)(CNC(=O)CN(C(=O)CN1CCN(CC(=O)[O-])CCN(CC(=O)[O-])CCN(CC(=O)[O-])CC1)C(C)C)CNC(=O)CN(C(=O)CN1CCN(CC(=O)[O-])CCN(CC(=O)[O-])CCN(CC(=O)[O-])CC1)C(C)C)C(=O)CN1CCN(CC(=O)[O-])CCN(CC(=O)[O-])CCN(CC(=O)[O-])CC1.[Gd+3].[Gd+3].[Gd+3].[Gd+3] [Example 5]
11.1

Supply r1 water value. Item: CC(C)CN(CC(=O)NCC(CNC(=O)CN(CC(C)C)C(=O)CN1CCN(CC(=O)[O-])CCN(CC(=O)[O-])CCN(CC(=O)[O-])CC1)(CNC(=O)CN(CC(C)C)C(=O)CN1CCN(CC(=O)[O-])CCN(CC(=O)[O-])CCN(CC(=O)[O-])CC1)CNC(=O)CN(CC(C)C)C(=O)CN1CCN(CC(=O)[O-])CCN(CC(=O)[O-])CCN(CC(=O)[O-])CC1)C(=O)CN1CCN(CC(=O)[O-])CCN(CC(=O)[O-])CCN(CC(=O)[O-])CC1.[Gd+3].[Gd+3].[Gd+3].[Gd+3] [Example 6]
11.6

Supply r1 water value. Item: O=C([O-])CN1CCN(CC(=O)[O-])CCN(CC(=O)N(CC(=O)NCC(CNC(=O)CN(C(=O)CN2CCN(CC(=O)[O-])CCN(CC(=O)[O-])CCN(CC(=O)[O-])CC2)c2ccccc2)(CNC(=O)CN(C(=O)CN2CCN(CC(=O)[O-])CCN(CC(=O)[O-])CCN(CC(=O)[O-])CC2)c2ccccc2)CNC(=O)CN(C(=O)CN2CCN(CC(=O)[O-])CCN(CC(=O)[O-])CCN(CC(=O)[O-])CC2)c2ccccc2)c2ccccc2)CCN(CC(=O)[O-])CC1.[Gd+3].[Gd+3].[Gd+3].[Gd+3] [Example 9]
11.0
